- TEST SYSTEM: Thymidylate synthase (Homo sapiens)
- Sequence (P04818 whole entry): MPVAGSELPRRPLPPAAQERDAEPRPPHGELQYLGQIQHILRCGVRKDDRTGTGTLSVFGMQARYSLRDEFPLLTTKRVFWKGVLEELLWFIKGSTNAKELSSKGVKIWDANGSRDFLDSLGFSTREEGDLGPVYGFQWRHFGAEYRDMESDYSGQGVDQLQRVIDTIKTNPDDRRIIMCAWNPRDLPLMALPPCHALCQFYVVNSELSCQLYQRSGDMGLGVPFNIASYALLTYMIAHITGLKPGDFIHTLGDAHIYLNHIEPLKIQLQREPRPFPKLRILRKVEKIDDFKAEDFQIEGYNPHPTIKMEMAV
pIC50: −log10 of the molar value.
Listing of entries alongside the reported pIC50.

{"STRUCTURE AS SMILES": "CCc1[nH]c2nc(N)nc(O)c2c1Sc1ccc2ccccc2c1", "pIC50": 5.25}
{"STRUCTURE AS SMILES": "CCc1[nH]c2nc(N)nc(O)c2c1Sc1ccc(C(=O)N[C@@H](CCC(=O)O)C(=O)O)cc1", "pIC50": 7.05}
{"STRUCTURE AS SMILES": "CCc1[nH]c2nc(N)nc(O)c2c1Sc1cccc(Cl)c1", "pIC50": 5.59}
{"STRUCTURE AS SMILES": "CCc1[nH]c2nc(N)nc(O)c2c1Sc1cccc(Br)c1", "pIC50": 5.96}
{"STRUCTURE AS SMILES": "CCc1[nH]c2nc(N)nc(O)c2c1Sc1ccc(OC)cc1", "pIC50": 4.80}

Reference for the values: ChEMBL document CHEMBL1149399
